Numbers sourced from patent US8163909B2.

Test: Microsomal stability assay, rat liver microsomes;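 note: rat liver microsomes (0.25 mg/mL) with about 1 µM compound plus 1 mM NADPH, pH 7.4, 37 °C for 30 min, parent left measured by LC-MS/MS against 0 min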
Details: rat liver microsomes
measured-property: RLM (µL/min/mg)

- query-smiles: "COCC(=O)N[C@@H](Cc1ccc(F)cc1)[C@H](O)CN[C@H]1CC(C)(C)Oc2c1cc(CC(C)C)c1c2OCO1"
  measured-property: "RLM"
  endpoint-result: 217
- query-smiles: "CC(=O)N[C@@H](Cc1cc(F)cc(F)c1)[C@H](O)CN[C@H]1CC2(CCC2)Oc2c(-c3ccncc3)cc(Cl)cc21"
  measured-property: "RLM"
  endpoint-result: 829
- query-smiles: "CO[C@H](C)C(=O)N[C@@H](Cc1ccc(F)cc1)[C@H](O)CN[C@H]1CC2(CCC2)Oc2c(-c3ccncc3)cc(CC(C)C)cc21"
  measured-property: "RLM"
  endpoint-result: 85
- query-smiles: "CC(=O)N[C@@H](Cc1cc(F)cc(-c2cccnc2)c1)[C@H](O)CN[C@H]1CC2(CCC2)Oc2ccc(CC(C)(C)C)cc21"
  measured-property: "RLM"
  endpoint-result: 482
- query-smiles: "C#Cc1cc2c(c(-n3ccnc3)c1)OC1(CCC1)C[C@@H]2NC[C@@H](O)[C@H](Cc1cc(F)cc(F)c1)NC(=O)COC"
  measured-property: "RLM"
  endpoint-result: 44.5
- query-smiles: "COCC(=O)N[C@@H](Cc1ccc(F)cc1)[C@H](O)CN[C@H]1CC2(CCC2)Oc2c(-c3ccncc3)cc(CC(C)C)cc21"
  measured-property: "RLM"
  endpoint-result: 71

====

Target: CYP2D6 (Homo sapiens, UniProt P10635)
Sequence (P10635 whole entry): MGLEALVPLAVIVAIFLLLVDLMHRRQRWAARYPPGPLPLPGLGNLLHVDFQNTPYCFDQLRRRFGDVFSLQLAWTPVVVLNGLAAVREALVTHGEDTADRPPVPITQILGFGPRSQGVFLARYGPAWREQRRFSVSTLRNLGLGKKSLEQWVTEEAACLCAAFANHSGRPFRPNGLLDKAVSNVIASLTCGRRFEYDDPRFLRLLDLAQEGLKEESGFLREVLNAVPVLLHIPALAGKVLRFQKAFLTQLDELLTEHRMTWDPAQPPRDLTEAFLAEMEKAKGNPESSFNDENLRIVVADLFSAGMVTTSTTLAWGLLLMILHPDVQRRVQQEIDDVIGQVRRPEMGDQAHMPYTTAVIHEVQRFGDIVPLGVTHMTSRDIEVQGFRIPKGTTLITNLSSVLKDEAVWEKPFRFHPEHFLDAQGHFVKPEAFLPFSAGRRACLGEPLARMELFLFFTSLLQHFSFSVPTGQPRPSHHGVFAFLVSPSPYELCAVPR
Assay: CYP2D6 inhibition assay (bufuralol, pooled human liver microsomes)
Details: 2D6 IC50, CYP2D6 inhibition
pIC50: −log10 of the molar value.
Hi, to clarify the labels: 1.0 covers pIC50 from 6 upward, 0.0 covers anything below 6.

- query-smiles: "C[C@H](F)C(=O)N[C@@H](Cc1cccc(F)c1)[C@H](O)CN[C@H]1CC2(CCC2)Oc2ncc(CC(C)(F)F)cc21"
  assayed-system: "CYP2D6 (Homo sapiens, UniProt P10635)"
  group: 0.0
- query-smiles: "COCC(=O)N[C@@H](Cc1cc(F)cc(F)c1)[C@H](O)CN[C@H]1CC2(CCC2)Oc2c1cc(CC(C)(C)C)nc2-c1cncn1C"
  assayed-system: "CYP2D6 (Homo sapiens, UniProt P10635)"
  group: 0.0
- query-smiles: "CO[C@H](C)C(=O)N[C@@H](Cc1ccccc1)[C@H](O)CN[C@H]1CC2(CCC2)Oc2c(-c3ccncc3)cc(CC(C)C)cc21"
  assayed-system: "CYP2D6 (Homo sapiens, UniProt P10635)"
  group: 0.0
- query-smiles: "CO[C@H](C)C(=O)N[C@@H](Cc1cc(F)cc(F)c1)[C@H](O)CN[C@H]1CC2(CCC2)Oc2c(-c3cncn3C)cc(CC(C)C)cc21"
  assayed-system: "CYP2D6 (Homo sapiens, UniProt P10635)"
  group: 0.0
- query-smiles: "CO[C@H](C)C(=O)N[C@@H](Cc1cc(F)cc(F)c1)[C@H](O)CN[C@H]1CC2(CCC2)Oc2c(-c3ccncc3)cc(CC(C)(C)F)cc21"
  assayed-system: "CYP2D6 (Homo sapiens, UniProt P10635)"
  group: 1.0
- query-smiles: "COCC(=O)N[C@@H](Cc1cccc(C#N)c1)[C@H](O)CN[C@H]1CC2(CCC2)Oc2c(-c3ccncc3)cc(CC(C)(C)C)cc21"
  assayed-system: "CYP2D6 (Homo sapiens, UniProt P10635)"
  group: 0.0
